All figures here come from a melting point compilation (Tetko et al.; mined from patent text by program, amines drawn as free bases though some values may be those of a salt).

- Compound: "O=[N+]([O-])c1cn2c(n1)OC(COc1ccc(N3CCC(Cc4cc5cc(OC(F)(F)F)ccc5o4)CC3)cc1)CC2 (centres undefined)"
  melting point: "142 to 143 °C"
- Compound: "CCOC(=O)C(=O)c1cc(Cl)c(C)cc1NC(=O)OC(C)(C)C"
  melting point: "111 °C"
- Compound: "CCC12CCC3C4CCC(=O)C=C4CCC3C1CCC2(C)O (centres undefined)"
  melting point: "128 to 129 °C"
- Compound: "COc1ccc(CNc2cc3c(Nc4ccc(Cl)c(Br)c4)ncnc3cn2)cc1"
  melting point: "207 to 210 °C"
- Compound: "COc1ccc(N(C(=O)CN2C(=O)c3ccccc3C2=O)c2ccccc2)cc1"
  melting point: "192 °C"
- Compound: "CSc1ccc(-c2csc3ccc(-c4nnc(C)o4)cc23)cc1"
  melting point: "198 to 199 °C"
- Compound: "COc1cc2c(cc1OC(C)C)-c1c(Br)c3c(n1CC2)C(=O)N(C(C)(C)C)CCOC3"
  melting point: "160 to 162 °C"
- Compound: "CC(=O)OCC(O)(CN(C)S(=O)(=O)c1ccc(Cl)c(C)c1)c1cccc(Cl)n1 (centres undefined)"
  melting point: "92 to 93 °C"
- Compound: "OC(CNC1CC1)c1cccc(F)c1 (centres undefined)"
  melting point: "57.8 to 60 °C"
